src = patent US10285989B2

Target: human PDE2A1 (Homo sapiens (Human))
Sequence (O00408 other isoform, or with tags, fused parts or gaps): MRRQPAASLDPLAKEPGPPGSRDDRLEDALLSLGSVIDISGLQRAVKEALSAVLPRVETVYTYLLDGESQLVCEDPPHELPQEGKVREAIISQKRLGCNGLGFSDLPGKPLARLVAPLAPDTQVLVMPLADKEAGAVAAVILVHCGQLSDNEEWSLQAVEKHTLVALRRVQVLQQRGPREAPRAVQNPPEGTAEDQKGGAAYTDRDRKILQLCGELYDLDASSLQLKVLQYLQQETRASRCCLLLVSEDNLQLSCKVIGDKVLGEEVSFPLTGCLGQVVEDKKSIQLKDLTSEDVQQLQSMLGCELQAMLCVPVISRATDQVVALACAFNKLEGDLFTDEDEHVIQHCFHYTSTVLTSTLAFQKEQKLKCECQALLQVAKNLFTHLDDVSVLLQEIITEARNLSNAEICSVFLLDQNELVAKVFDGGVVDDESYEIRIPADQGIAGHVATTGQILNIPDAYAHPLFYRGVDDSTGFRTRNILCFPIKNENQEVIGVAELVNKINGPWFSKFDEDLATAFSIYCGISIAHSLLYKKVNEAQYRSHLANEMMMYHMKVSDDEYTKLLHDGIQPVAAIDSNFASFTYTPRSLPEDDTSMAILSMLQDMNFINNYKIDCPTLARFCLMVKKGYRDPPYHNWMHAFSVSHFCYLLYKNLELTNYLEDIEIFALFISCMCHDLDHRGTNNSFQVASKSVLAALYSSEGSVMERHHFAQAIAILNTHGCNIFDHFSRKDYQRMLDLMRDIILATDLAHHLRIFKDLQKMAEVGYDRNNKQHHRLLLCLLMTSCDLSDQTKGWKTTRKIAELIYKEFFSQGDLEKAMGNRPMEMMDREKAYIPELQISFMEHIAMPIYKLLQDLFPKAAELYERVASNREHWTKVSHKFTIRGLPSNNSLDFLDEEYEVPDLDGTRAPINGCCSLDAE
Assay: PDE2 IMAP FP inhibition assay, human PDE2A1 (selectivity panel format)
Assay type: biochemical
Settings: Lab A; read-out: Human PDE2 Ki (nM) - Lab A
Below: a set of entries, each annotated with reported Ki.
readout: Ki (nM)

compound | readout.value
COc1ccc(Oc2nc(C(=O)N[C@H](C)c3ccc(C(F)(F)F)cc3)cc(=O)[nH]2)cc1OC [Example 22] | 988
C[C@@H](NC(=O)c1cc(=O)[nH]c(N(C)C)n1)c1ccc(SC(F)(F)F)cc1 [Example 143] | 0.32
CC(C)[C@@H](NC(=O)c1cc(=O)[nH]c(N)n1)c1ccc(SC(F)(F)F)cc1 [Example 154] | 9.9
CCN(CC)c1nc(C(=O)N[C@H](C)c2ccc(C(F)(F)F)cc2)cc(=O)[nH]1 [Example 142] | 16
C[C@@H](NC(=O)c1cc(=O)[nH]c(Nc2ccccn2)n1)c1ccc(C(F)(F)F)cc1 [Example 136] | 491
Cc1ncc2c(n1)CN(c1nc(C(=O)N[C@H](C)c3ccc(C(F)(F)F)cc3)cc(=O)[nH]1)C2 [Example 159] | 11
CC(C)OCCCOc1nc(C(=O)NC(C)c2ccc(C(F)(F)F)cc2)cc(=O)[nH]1 (centres unmarked) [Example 183] | 23
CNc1nc(C(=O)N[C@H](C)c2ccc(C(F)(F)F)cc2)cc(=O)[nH]1 [Example 135] | 27
